The reported measurements were obtained from ChEMBL document CHEMBL1687756.

- Protocol: Drug level in Beagle dog muscle at injected site at 5 mg/kg, sc after 3 months
- Type: ADME, organism-based, Canis lupus familiaris, Muscle tissue
- Design: dose 5 mg/kg, route subcutaneous
- Test settings: read-out: Drug uptake
Measurement label: concentration at 2191.5 h (ng/g)
Respond with the bare value in ng/g.

Exam item: Entry under review: Cc1cc(/C=C/C#N)cc(C)c1Nc1ccnc(Nc2ccc(C#N)cc2)n1 [RILPIVIRINE] . Reported concentration at 2191.5 h?
Marked response: 467

====

- Protocol: Ratio of drug level in spleen to plasma in female Beagle dog at 200 mg/kg, sc after 1 month
- Assay type: ADME, organism-based, Canis lupus familiaris
- Set-up: dose 200 mg/kg, route subcutaneous
Measurement label: Kp at 730.5 h
// no unit, no text: just the number

Exam item: Consider the compound Cc1cc(/C=C/C#N)cc(C)c1Nc1ccnc(Nc2ccc(C#N)cc2)n1 [RILPIVIRINE] and give its measured Kp at 730.5 h.
Marked response: 2
